Target: human calpain 9 (Homo sapiens, UniProt O14815)
Construct: human calpain 9, residues 27-347, was over expressed in E. coli BL21 (DE3); hexa-histidine (N); made in house; host or cells: E. coli BL21 (DE3)
Sequence (O14815 27-347): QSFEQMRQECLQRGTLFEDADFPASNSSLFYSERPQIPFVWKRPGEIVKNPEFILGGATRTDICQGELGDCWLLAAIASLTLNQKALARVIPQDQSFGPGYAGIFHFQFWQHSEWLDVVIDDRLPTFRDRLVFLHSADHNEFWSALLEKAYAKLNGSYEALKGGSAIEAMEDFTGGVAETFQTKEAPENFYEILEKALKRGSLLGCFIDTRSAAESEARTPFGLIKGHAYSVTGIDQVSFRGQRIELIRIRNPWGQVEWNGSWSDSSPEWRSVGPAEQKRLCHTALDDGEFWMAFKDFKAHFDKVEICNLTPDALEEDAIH
Assay: Calpain binding: crystal structure interaction distances, human calpain 9
Conditions: non-polar interactions with human calpain 9
metric: Interaction Distances P1-Lys188 (Å)

smiles_structure	readout_value
CCCC[C@H](NC(=O)c1oc(C)nc1-c1ccccc1)C(=O)C(N)=O	4.4
NC(=O)C(=O)[C@H](Cc1ccccc1)NC(=O)c1snnc1-c1ccccc1	3.7
NC(=O)C(=O)[C@H](Cc1ccccc1)NC(=O)c1nsnc1-c1ccccc1	4.0
Cn1cc(C(=O)N[C@@H](Cc2ccccc2)C(=O)C(N)=O)c(-c2ccccc2)n1	3.8
